biological target: SARS-CoV-2 Spike Protein (S1 Subunit, Fc Tag) (Sino 40591-V02H) (SARS-CoV-2, UniProt P0DTC2 16-685); test: Luminex bead assay, supernatant on antigen microspheres
Below, each entry is listed alongside its reported Binding signal (MFI).

>  <binder>
mAb10986 (antibody, V domains shown) VH: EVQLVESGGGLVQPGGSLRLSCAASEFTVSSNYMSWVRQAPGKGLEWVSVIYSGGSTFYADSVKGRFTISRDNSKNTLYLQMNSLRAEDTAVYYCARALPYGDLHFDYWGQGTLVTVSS VL: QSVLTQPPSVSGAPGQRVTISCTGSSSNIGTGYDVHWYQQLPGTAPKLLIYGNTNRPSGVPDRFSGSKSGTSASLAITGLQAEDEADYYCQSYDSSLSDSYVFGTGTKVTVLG

>  <Binding signal (MFI)>
16000

$$$$
>  <binder>
mAb10989 (antibody, V domains shown) VH: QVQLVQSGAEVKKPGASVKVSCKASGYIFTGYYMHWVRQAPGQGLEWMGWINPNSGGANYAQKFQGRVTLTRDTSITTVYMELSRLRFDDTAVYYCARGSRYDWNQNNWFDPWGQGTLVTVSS VL: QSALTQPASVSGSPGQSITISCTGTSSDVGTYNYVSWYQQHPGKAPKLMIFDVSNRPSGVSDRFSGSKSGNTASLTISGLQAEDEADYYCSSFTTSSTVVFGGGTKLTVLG

>  <Binding signal (MFI)>
12300

$$$$
>  <binder>
mAb10957 (antibody, V domains shown) VH: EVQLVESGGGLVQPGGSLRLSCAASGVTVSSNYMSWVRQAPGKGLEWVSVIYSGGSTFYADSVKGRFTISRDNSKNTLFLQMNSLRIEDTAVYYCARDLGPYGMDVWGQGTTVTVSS VL: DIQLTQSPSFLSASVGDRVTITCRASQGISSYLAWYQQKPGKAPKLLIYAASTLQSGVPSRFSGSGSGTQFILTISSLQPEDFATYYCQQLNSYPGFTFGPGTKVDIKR

>  <Binding signal (MFI)>
8450

$$$$
